assay.name: Oral bioavailability in rat
Type: ADME, organism-based
assay.setup: in vivo
Give measured bioavailability for each item. Keep answers brief.
Give the number first and the unit second.

>>> val("CC(C)C[C@H](NC(=O)OCc1ccccc1)C(=O)N[C@@H](C[C@@H]1CCNC1=O)C(O)S(=O)(=O)[O-].[Na+] (some centres not stated)")
"3%"

Now take the following compound into account.
Per the record, CC(C)(C)NC(=O)N[C@H](C(=O)N1C[C@H]2[C@@H]([C@H]1C(=O)N[C@@H](C[C@@H]1CCNC1=O)C(=O)C(N)=O)C2(C)C)C(C)(C)C has bioavailability of 0.2%

----------
assay.name: Plasma protein binding in monkey assessed as unbound fraction at 1 uM
Format: ADME, cell-free, Macaca mulatta
assay.setup: rhesus monkey
measured.endpoint: fraction unbound at 1 µM
One number for each entry.

Sure, the documented fraction unbound at 1 µM for CNC(=O)C(=O)[C@H](CCC(C)(F)F)NC(=O)[C@@H]1[C@H]2CCC[C@H]2CN1C(=O)[C@@H](NC(=O)OC)C(C)(C)C is 0.5

----------
experimental.target: CYP3A (Homo sapiens, UniProt P08684+P20815+P24462+Q9HB55)
assay.name: Time dependent inhibition of CYP3A in human liver microsomes assessed as inhibition constant
Type: ADME, Microsome
measured.endpoint: Ki (µM)
Give bare numbers, in µM.

Sure, the documented Ki for CNC(=O)C(=O)[C@H](CCC(C)(F)F)NC(=O)[C@@H]1[C@H]2CCC[C@H]2CN1C(=O)[C@@H](NC(=O)OC)C(C)(C)C is 110

----------
System: SARS-CoV-2
assay.name: Antiviral activity against SARS-CoV-2 Delta B.1.617 AY-2 infected in human A549-hACE2-TMPRSS2 cells assessed as inhibition of virus induced cytopathic effect incubated for 72 hrs by celltiter glo assay
Type: functional, organism-based
assay.setup: Severe acute respiratory syndrome coronavirus 2, Delta B.1.617 AY-2, A549-hACE2-TMPRSS2, 72 h
measured.endpoint: IC50 (nM)
One number for each entry, in nM.

Form field IC50 for item CNC(=O)C(=O)[C@H](CCC(C)(F)F)NC(=O)[C@@H]1[C@H]2CCC[C@H]2CN1C(=O)[C@@H](NC(=O)OC)C(C)(C)C on SARS-CoV-2: 351

----------
assay.name: MRT in dog at 3 mg/kg, po or 1 mg/kg, iv measured upto 24 hrs by LC-MS analysis
Assay type: ADME, organism-based, Canis lupus familiaris
assay.setup: in vivo
Please go through the items and note down their log10 MRT.
Each number you see is log10 of MRT, and the unit inside the log is h.

>>> val("CNC(=O)C(=O)[C@H](CCC(C)(F)F)NC(=O)[C@@H]1C[C@H](C(F)(F)F)CCN1C(=O)[C@@H](NC(=O)OC)C(C)(C)C")
0.49
>>> val("COC(=O)N[C@H](C(=O)N1CC[C@@H](C(F)(F)F)C[C@H]1C(=O)N[C@@H](CCC(C)(F)F)C(=O)C(=O)NC1CC1)C(C)(C)C")
0.93
>>> val("COC(=O)N[C@H](C(=O)N1C[C@H]2[C@@H]([C@H]1C(=O)N[C@@H](CCC(C)(F)F)C(=O)C(=O)NC1CC1)C21CCOCC1)C(C)(C)C")
0.38

Record log10 MRT for all entries; do not skip any.
1. CNC(=O)C(=O)[C@H](CCC(C)(F)F)NC(=O)[C@@H]1[C@H]2CCC[C@H]2CN1C(=O)[C@@H](NC(=O)OC)C(C)(C)C
2. COC(=O)N[C@H](C(=O)N1CC2(C[C@H]1C(=O)N[C@@H](CCC(C)(F)F)C(=O)C(=O)NC1CC1)CC2(F)F)C(C)(C)C (stereo partly drawn)

[0.40, 0.51]

# batch: return log10 MRT for each of the 3 compounds below
1. COC(=O)N[C@H](C(=O)N1CC2(CCCCC2)C[C@H]1C(=O)N[C@@H](CCC(C)(F)F)C(=O)C(=O)NC1CC1)C(C)(C)C
2. COC(=O)N[C@H](C(=O)N1C[C@@H]2CCC[C@@H]2[C@H]1C(=O)N[C@@H](CCC(C)(F)F)C(=O)C(=O)NC1CC1)C(C)(C)C
3. COC(=O)N[C@H](C(=O)N1CCC2(CC2)C[C@H]1C(=O)N[C@@H](CCC(C)(F)F)C(=O)C(=O)NC1CC1)C(C)(C)C

-0.10
0.43
0.56
